B1: TPR t1 (parent)
chain: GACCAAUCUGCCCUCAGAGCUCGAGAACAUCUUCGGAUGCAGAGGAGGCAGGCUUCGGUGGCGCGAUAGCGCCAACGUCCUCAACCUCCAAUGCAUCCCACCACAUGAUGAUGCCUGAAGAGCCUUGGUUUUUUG

# Variants of: B1
# ASSAY_OVERVIEW: polymerase ribozyme fitness, log enrichment relative to wild type (log ratio); higher = more active; in vitro selection for triplet polymerase activity
ASSAY_ENDPOINT: polymerase ribozyme fitness (log ratio)
Write the number on its own, no unit after it.

GACCAAUCUGCCCUCAGAGCUCGAGAACAUCUUCGGAUGCAGAGGAGGCAGGUUUCGGUGGUGCGAUAGCGCCAACGUCCUCAACCUCCAAUGCAUCCCACCACAUGAUGUUGCCUGUAGAGCCUUGGUUUUUUA [C53U C62U A111U A118U G135A] :: -3.23
GACCAAUCUGCCCUCAGAGAUCGAGAACAUCUUCGGAUGCAGAGGAGGCAGGCUUCGGUGGCGCGAUAGCGCCAACGUCCUCACCCUACAAGGCAUCCCACCACAUGAUGAUGACUGAAGAGCCUUGGUUUUUUG [C20A A84C C88A U92G C114A] :: -4.5

API: the following record is the query input.
### Prompt What polymerase ribozyme fitness (log ratio) value was documented for this variant, GACCAAUCUGCCCUCAGAGCUCGAGAACAUCUUCGGAUGCAGAGGAGGCAGUCUUCGGUAGCGCGAUAGCGCCAACGUCCUCAACCUCCAAUGCAUCCCACCACAUGAUGAUGCCUGAAGAGCCUUGGUUUUUUG [G52U G60A] ?
### Response -0.943
